# test.system: HIV-1 92BR020 Env (clade B pseudovirus) (HIV-1)
# assay.procedure: cell-based or functional assay

| binder | unit.info | relation.qualifier | IC50 (µg/mL), pseudovirus neutralization |
| --- | --- | --- | --- |
| 1443_C16 (PG16) (TCN-116) (antibody, V domains shown) VH: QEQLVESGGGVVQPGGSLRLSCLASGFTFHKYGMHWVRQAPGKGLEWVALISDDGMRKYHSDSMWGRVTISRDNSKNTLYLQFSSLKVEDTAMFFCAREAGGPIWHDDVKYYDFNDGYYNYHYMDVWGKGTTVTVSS VL: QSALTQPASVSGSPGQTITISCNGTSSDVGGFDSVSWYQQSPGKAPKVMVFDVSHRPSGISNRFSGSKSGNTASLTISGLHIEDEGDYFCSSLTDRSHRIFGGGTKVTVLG | µg/mL | > | 50 |
| 1495_C14 (PGC14) (antibody, human IgG1, lambda, V domains shown) VH: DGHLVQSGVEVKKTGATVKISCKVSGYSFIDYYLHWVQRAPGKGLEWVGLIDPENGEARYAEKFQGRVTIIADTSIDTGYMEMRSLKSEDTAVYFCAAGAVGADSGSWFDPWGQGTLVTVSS VL: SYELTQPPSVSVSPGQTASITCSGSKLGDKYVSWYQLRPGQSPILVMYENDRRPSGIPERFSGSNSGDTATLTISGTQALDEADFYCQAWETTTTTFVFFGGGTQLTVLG | µg/mL | = | 0.64 |
